Listed below are compounds with pIC50 for Collagenase 3 (Homo sapiens), each taken from published literature.
pIC50: −log10 of the molar value.

Task item: Could you share what pIC50 was measured for `CN1CCN(CC(=O)N2CCN(S(=O)(=O)c3cc(F)c(Oc4ccc(Cl)cc4)c(F)c3)[C@@H](C(=O)NO)C2)CC1` , tested on Collagenase 3 (Homo sapiens)?
Reply: > 7.30

Task item: Lab note: need pIC50 with Collagenase 3 (Homo sapiens) for entry COC(=O)Nc1cccc(COc2ccc(C(=O)[C@@H]3CC[C@H](Cn4nnc5ccc(C(F)(F)F)cc5c4=O)[C@H]3C(=O)O)cc2)c1 (stereo in doubt) , please look it up.
Reply: 6.72

Task item: Which pIC50 is reported with Collagenase 3 (Homo sapiens) for this entry: `CNC(=O)[C@@H](NC(=O)c1ccc(-c2ccc(-c3ccnc(C)c3)cn2)o1)C(C)C` ?
Reply: 6.96

Task item: // map `CNC(=O)[C@@H](NC(=O)c1ccc(-c2cccc(CNC(=O)c3ccc(OC)cc3)c2)o1)C(C)C` to recorded pIC50 (system: Collagenase 3 (Homo sapiens))
Reply: 6.81

Task item: // lookup pIC50 | system=Collagenase 3 (Homo sapiens) | key= CS(=O)(=O)c1ccc(CNC(=O)C2CCc3sc4nc(C(=O)NCc5ccc6c(c5)NC(=O)CO6)[nH]c(=O)c4c32)cc1 (stereo not shown)
Reply: > 7.00

Task item: Form entry - test system: Collagenase 3 (Homo sapiens); read-out: pIC50; compound: `CC(C)(CO)NC(=O)c1c[nH]c2c(C(=O)NCc3ccc4c(c3)NC(=O)CO4)ncnc12`
Reply: 4.70 to 7.00

Task item: Request: pIC50, test system Collagenase 3 (Homo sapiens), entry `C#Cc1ccc2nc(C(=O)NCc3ccc4c(c3)NC(=O)CO4)[nH]c(=O)c2c1`
Reply: > 7.00

Task item: Query for Collagenase 3 (Homo sapiens): what pIC50 does the record show for `O=C1COc2ccc(CNC(=O)c3nc4cc(C(F)(F)F)ccc4c(=O)[nH]3)cc2N1` ?
Reply: 4.70 to 7.00

Task item: Find pIC50 (Collagenase 3 (Homo sapiens)) for the entry `O=C(NCc1ccc2c(c1)-n1cnnc1CO2)c1nc2ccccc2c(=O)[nH]1`
Reply: > 7.00

Task item: // fetch Collagenase 3 (Homo sapiens) pIC50 for Cc1sc2nc(C(=O)NCc3ccc4c(c3)NC(=O)CO4)[nH]c(=O)c2c1C(C)c1ccccc1 (stereo not shown)
Reply: > 7.00

Task item: Short answer please: pIC50, Collagenase 3 (Homo sapiens), entry Cc1cccn(CC2(c3ccc(F)c(F)c3)NC(=O)NC2=O)c1=O (stereo not shown)
Reply: < 4.00

Task item: I'm curious: which pIC50 was measured for `Cc1cc(CNC(=O)c2cc(C(=O)N[C@H]3CCc4cc(C(=O)O)ccc43)nc(N)n2)ccc1F` tested on Collagenase 3 (Homo sapiens)?
Reply: > 8.30

Task item: Form field: pIC50 recorded for `O=C(NCc1ccccc1)c1c[nH]c2c(C(=O)NCc3ccc(F)cc3)ncnc12` with Collagenase 3 (Homo sapiens) (enter value)
Reply: 4.70 to 7.00

Task item: What pIC50 appears in the records for this compound with Collagenase 3 (Homo sapiens)? `C[C@@H](CO)NC(=O)[C@@H](NC(=O)c1ccc(-c2ccc(C#N)cc2)o1)C1CCCCC1`
Reply: 6.71

Task item: Item: `Cc1ccc(C)c(COc2ccc(S(=O)(=O)N3C[C@H](C)O[C@@H](C)[C@@H]3C(=O)NO)cc2)c1` Test system: Collagenase 3 (Homo sapiens) Read-out: pIC50 Value: ?
Reply: 7.06

Task item: Kindly state the measured pIC50 obtained for `O=C1NC(=O)[C@](CNC(=O)[C@@H](Cc2ccc(C(F)(F)F)cc2)C2CC2)(C2CC2)N1` with Collagenase 3 (Homo sapiens).
Reply: 4.33
